measured.on: Tyrosine-protein kinase ABL2 (Homo sapiens) (UniProt P42684)
Sequence (P42684 whole entry): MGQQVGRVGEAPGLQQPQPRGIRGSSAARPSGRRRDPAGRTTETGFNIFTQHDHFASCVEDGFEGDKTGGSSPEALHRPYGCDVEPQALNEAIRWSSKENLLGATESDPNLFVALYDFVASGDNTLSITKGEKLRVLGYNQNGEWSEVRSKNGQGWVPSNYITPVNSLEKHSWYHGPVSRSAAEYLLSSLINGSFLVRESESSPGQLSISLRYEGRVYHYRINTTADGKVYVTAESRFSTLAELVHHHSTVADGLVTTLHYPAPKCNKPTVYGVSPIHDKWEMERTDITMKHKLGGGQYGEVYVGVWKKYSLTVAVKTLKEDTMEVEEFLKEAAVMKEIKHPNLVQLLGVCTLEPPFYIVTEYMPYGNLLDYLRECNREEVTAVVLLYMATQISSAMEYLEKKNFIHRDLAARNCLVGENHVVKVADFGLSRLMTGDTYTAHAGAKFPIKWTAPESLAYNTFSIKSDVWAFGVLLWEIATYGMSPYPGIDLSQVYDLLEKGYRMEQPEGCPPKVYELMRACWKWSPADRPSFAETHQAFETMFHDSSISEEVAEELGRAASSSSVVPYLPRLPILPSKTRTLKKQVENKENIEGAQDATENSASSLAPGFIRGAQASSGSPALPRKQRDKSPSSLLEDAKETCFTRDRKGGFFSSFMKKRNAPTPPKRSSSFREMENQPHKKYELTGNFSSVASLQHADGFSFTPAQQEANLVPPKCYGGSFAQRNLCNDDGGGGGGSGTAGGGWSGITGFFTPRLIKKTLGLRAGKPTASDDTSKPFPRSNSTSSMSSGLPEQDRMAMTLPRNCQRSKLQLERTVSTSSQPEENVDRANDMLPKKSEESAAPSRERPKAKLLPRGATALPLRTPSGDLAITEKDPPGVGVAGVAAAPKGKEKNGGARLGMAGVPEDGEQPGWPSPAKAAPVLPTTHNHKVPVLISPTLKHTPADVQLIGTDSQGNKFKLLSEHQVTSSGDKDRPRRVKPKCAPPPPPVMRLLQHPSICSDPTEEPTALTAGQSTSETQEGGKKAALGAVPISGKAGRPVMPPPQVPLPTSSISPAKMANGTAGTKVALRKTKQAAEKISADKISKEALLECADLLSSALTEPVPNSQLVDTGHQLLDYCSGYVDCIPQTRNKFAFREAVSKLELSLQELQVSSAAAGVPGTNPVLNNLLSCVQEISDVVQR
test.settings: at 1 µM
Description: GSK_PKIS: ARG mean inhibition at 1 uM [Nanosyn]
parameter.measured: inhibition (%)

1) COc1ccccc1Nc1ncc(-c2ccccc2)o1 = 11.2
2) [O-][S+]1CCN(Cc2ccc(-c3ccc4ncnc(Nc5ccc(OCc6ccccc6)c(F)c5)c4c3)o2)CC1 = 3.87
3) Fc1cccc(COc2ccc(Nc3ncnc4cc(-c5ccc[nH]5)sc34)cc2Cl)c1 = 9.41
4) COc1ccc(-c2coc3ncnc(N)c23)cc1 = 8.31
5) Cc1cccc(-c2n[nH]cc2-c2ccc3ncccc3n2)n1 = 8
6) CCn1c(-c2nonc2N)nc2cncc(C(=O)N3CC[C@H](N)C3)c21 = 7.29
7) CS(=O)(=O)Nc1ccc(N/C=C2\C(=O)Nc3ccccc32)cc1 = 8.69
8) COc1cccc(-n2ncc3c(N/N=C/c4cccc(F)c4)ncnc32)c1 = 52.4
9) CCCN1CCC(Oc2cc(Nc3nc(Nc4cccc(F)c4C(N)=O)c4cc[nH]c4n3)c(OC)cc2Cl)CC1 = 12.3
10) COc1cc(C)c(NC(=O)CN(C)C)cc1Nc1nc(Nc2cccc(F)c2C(N)=O)c2cc[nH]c2n1 = -0.02
11) CC1=C(C(=O)Nc2ccc3[nH]ncc3c2)C(c2ccc(F)cc2)NC(=O)N1 (stereo unspecified) = 19.7
12) CCn1c(-c2nonc2N)nc2c(C#CC(C)(C)O)nc(CN3CCCC3)cc21 = 5.65
13) CS(=O)(=O)CCN(CC#N)Cc1ccc(-c2ccc3ncnc(Nc4ccc(OCc5cccc(F)c5)c(Cl)c4)c3c2)o1 = -1.72
14) CCN1CCC(CC(=O)Nc2n[nH]c3nc(-c4cccs4)c(Br)cc23)CC1 = 2.5
15) CCn1c(-c2nonc2N)nc2c(C#CC(C)(C)O)nc(OC[C@@H](N)c3ccccc3)cc21 = 1.83
16) Nc1nc(-c2ccccn2)c(-c2ccc3ncccc3n2)s1 = 8.87
17) NS(=O)(=O)c1cccc(-c2ccc3c(NC(=O)C4CC4)n[nH]c3c2)c1 = 1.08
18) O=C1NC(=O)C(c2cccc(Cl)c2)=C1Nc1ccc(O)c(Cl)c1 = 8.28
19) CC(C)=Cc1cccc2c1/C(=N/Nc1ccc(S(N)(=O)=O)cc1)C(=O)N2 = 14
20) COc1ccc(-c2ccncc2)cc1C(N)=O = 4.08
21) Nc1ncnc2occ(-c3ccc(NC(=O)Nc4cccc(C(F)(F)F)c4)cc3)c12 = 64.7
